assayed target: SARS-COV-2 RBD extracellular domain expressed with a C-terminal mouse IgG2a (SARS-COV-2 RBD-mFc) (SARS-CoV-2)
measurement description: SPR, captured mAb, RBD-mFc in solution, 37 C
Rule: t½ below 40 min gives Met. Equal to or above 40 min gives Not met.

binder	assigned class
mAb10920 (antibody, V domains shown) VH: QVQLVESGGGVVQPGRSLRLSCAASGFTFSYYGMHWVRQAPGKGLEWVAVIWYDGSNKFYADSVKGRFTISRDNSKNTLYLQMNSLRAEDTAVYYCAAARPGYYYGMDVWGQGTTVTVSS VL: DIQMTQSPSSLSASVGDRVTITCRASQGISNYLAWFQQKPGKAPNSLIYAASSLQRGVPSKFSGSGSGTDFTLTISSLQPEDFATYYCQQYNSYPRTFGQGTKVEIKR	Met
mAb10985 (antibody, V domains shown) VH: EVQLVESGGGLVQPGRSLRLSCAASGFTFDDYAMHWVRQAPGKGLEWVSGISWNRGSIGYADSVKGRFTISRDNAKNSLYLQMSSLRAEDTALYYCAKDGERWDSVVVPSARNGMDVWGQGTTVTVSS VL: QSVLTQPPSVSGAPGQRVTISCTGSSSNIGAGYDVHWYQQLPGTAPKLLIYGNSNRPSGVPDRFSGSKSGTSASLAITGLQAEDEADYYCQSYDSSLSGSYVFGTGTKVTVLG	Met
mAb10982 (antibody, V domains shown) VH: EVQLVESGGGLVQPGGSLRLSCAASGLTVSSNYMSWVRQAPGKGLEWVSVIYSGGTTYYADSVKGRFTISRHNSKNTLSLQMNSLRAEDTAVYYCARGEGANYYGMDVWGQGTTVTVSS VL: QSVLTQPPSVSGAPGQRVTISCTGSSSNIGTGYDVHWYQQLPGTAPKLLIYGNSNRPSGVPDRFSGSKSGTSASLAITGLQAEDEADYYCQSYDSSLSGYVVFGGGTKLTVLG	Not met
mAb10914 (antibody, V domains shown) VH: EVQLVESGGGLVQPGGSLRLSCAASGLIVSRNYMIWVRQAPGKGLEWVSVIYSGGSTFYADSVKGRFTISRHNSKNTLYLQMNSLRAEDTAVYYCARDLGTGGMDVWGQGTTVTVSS VL: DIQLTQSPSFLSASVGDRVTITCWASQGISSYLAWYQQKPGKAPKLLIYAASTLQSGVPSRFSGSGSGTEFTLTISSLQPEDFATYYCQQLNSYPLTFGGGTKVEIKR	Not met
mAb10938 (antibody, V domains shown) VH: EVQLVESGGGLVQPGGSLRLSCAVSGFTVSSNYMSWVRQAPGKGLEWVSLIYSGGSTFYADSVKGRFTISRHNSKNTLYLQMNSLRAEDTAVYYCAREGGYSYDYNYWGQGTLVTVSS VL: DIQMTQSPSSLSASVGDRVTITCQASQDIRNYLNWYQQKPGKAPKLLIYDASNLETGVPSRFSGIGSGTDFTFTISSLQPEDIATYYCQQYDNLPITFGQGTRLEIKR	Not met
mAb10989 (antibody, V domains shown) VH: QVQLVQSGAEVKKPGASVKVSCKASGYIFTGYYMHWVRQAPGQGLEWMGWINPNSGGANYAQKFQGRVTLTRDTSITTVYMELSRLRFDDTAVYYCARGSRYDWNQNNWFDPWGQGTLVTVSS VL: QSALTQPASVSGSPGQSITISCTGTSSDVGTYNYVSWYQQHPGKAPKLMIFDVSNRPSGVSDRFSGSKSGNTASLTISGLQAEDEADYYCSSFTTSSTVVFGGGTKLTVLG	Met
mAb11006 (antibody, V domains shown) VH: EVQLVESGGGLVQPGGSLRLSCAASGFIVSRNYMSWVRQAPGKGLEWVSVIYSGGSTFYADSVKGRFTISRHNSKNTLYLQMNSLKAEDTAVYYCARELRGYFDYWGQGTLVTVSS VL: DIQLTQSPSFLSASVGDRVTITCWASQGISSYLAWYQQKPGKAPKLLIYAASTLQSGVPSRFSGSGSGTEFTLTISSLQPEDFATYYCQLLNSYPYTFGQGTKLEIKR	Not met
mAb10921 (antibody, V domains shown) VH: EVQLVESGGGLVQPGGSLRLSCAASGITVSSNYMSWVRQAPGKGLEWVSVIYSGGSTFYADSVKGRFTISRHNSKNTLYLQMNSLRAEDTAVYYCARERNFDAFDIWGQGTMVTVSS VL: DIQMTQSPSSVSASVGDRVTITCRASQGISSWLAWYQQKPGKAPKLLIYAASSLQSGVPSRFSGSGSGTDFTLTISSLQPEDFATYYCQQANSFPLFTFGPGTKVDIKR	Not met

Enquiry: Record mAb10971 (antibody, V domains shown) VH: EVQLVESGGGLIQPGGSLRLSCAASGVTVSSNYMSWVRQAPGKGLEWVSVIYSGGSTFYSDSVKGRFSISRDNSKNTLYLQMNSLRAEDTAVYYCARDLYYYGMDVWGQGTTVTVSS VL: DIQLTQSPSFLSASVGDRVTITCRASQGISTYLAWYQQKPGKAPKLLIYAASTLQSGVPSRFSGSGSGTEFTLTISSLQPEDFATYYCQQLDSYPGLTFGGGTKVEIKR : is its t½ strictly below 40 min?
Return: Not met

Enquiry: Record mAb10913 (antibody, V domains shown) VH: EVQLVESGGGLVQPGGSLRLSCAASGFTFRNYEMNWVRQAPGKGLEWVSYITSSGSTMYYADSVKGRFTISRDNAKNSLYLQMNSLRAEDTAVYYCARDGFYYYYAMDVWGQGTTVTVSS VL: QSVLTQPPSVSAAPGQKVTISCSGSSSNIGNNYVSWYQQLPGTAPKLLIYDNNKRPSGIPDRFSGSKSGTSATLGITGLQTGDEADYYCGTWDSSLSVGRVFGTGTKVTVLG : is its t½ strictly below 40 min?
Return: Met
